# Assayed target: IRE1α* (Homo sapiens, UniProt O75460)
# Construct: human IRE1α (residues 469-977, IRE1α*); made in house; host or cells: SF9 insect cells, Bac-to-Bac baculovirus
# Sequence (O75460 469-977): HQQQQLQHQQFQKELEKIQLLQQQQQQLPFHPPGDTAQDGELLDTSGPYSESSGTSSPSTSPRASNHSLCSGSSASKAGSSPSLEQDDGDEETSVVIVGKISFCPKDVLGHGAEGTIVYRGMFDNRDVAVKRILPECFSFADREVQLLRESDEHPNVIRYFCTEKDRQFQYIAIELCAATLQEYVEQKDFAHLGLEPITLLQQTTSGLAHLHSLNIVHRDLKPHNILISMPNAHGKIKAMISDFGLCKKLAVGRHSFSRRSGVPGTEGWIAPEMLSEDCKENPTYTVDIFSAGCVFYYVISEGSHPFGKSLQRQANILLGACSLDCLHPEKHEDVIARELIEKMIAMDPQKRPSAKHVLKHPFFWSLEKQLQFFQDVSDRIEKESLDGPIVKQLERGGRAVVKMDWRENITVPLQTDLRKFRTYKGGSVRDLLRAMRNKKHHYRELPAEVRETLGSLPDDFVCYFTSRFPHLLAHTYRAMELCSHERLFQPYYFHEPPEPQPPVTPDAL
# Assay summary: XBP1 RNA minisubstrate (FRET-quenched) RNase assay
# Type: biochemical
# Test settings: IRE1α*
Value kind: IC50

Query: Name the reported IC50 value associated with the compound CC(C)(C)c1nc(-c2ccc(NC(=O)Nc3cccc(F)c3)c3ccccc23)c2c(N)nccn12 [KIRA7]
Reply: < 30 nM
